Reference for the values: the EternaBench riboswitch data

Tested on: MS2 coat protein
PROCEDURE_TEXT: apparent Kd, MS2 coat protein; higher = weaker binding; RNA-MaP array
CONDITION_SUMMARY: ligand present: flavin mononucleotide; designed as: OFF switch for flavin mononucleotide

QUERY_SEQUENCE | apparent Kd, nM
GUGAUGCAGCAGAAGGGAUCGCUAAGGUUGUAAUCAGGAUAUGCAGUCGCUAGGGCGCCUCGACAUGAGGAUCACCCAUGUUUG | 61.7
AUAUAAUCAGGAUAUACAUGUUUCUUUAACACCGAGGCCGUACAUGAGGAUCACCCAUGUAGAAGGGAUUGCGG | 6.32
UCUCUUAAAGCAGGAUAUGAAAUCCACCAGGAAUCAGAAGGGCUCAACGUUACAUGAGGAUCACCCAUGUCCCUUAUGACAAUA | 9.35
AAGUCGCAAGGAUAUACAGUAAGGGUUCGGAUGGGAAGCUUACAUGAGGAUCACCCAUGUAGAAGGUGCAUUCA | 31.4
GUAGAGUCAGGAUAUGUCAACUGCUCUGUAAAGCUUGGUCGACAGAAGGGACAUGAGGAUCACCCAUGUGAAGG | 56.5
UCCAUACGGUAGGAUAUAUGUACCCAGAAGGGCAUAGAAGGACCCACAUGAGGAUCACCCAUGUUCCUUUGGUG | 30.5
CAGUUACUGUAGAAGGAUAUCAUUAAUACGGAUAUAGGAUAUACUCCGGGUGGAAUCGUGAACAUGAGGAUCACCCAUGUUUCG | 8.6
GCCAAGCAGGGAGGAUAUACAGGCAAUAAGUGAUUAGAAGAACAAAACAUGAGGAUCACCCAUGUGAAGAAGGCCCAUUCGGAA | 10.9
GUAACGGAAGGAUAUACGCUUUAAUGGACAGGUUCGAUGGCACAUGAGGAUCACCCAUGUAGAAGGUCCCUAAA | 13.4
ACCGUAUGGGAGAAGGAACUAUGUUAGACAUGAGGAUCACCCAUGUUCCAGAAUGUAGGGCUCAGUUAGGAUAUCCAAUUCAGA | 21.8
GACUACAUAGUCAGGAUAUGUGAUUAAUAAUAUCAACAGAAGGGACAUGAGGAUCACCCAUGUGUGCGAGUGGA | 33.2
GAUCUCCGCGAGAAGGCUGAGCGGUCACUAGCCAGAGGAUAUCGUCACGCGCAGGGAAAACAUGAGGAUCACCCAUGUGUAAGU | 10.6
UUAGUGAUACUAGGAUAUAGGUAAGACUCUUAACUAGAAGGAGUAGGGACGAAUACAUGAGGAUCACCCAUGUGAUUCUGGUUG | 26.3
CUCGUGUUAGGAUAUGACGUCCCGCGCUCCGUUAACUAAUUUCAGAAGGAACAUGAGGAUCACCCAUGUUGGUG | 59.7
GGAAUGUGAGGAUAUGUUAAGAAGGCGCGACGUUGGGAGACACAGAAGGCACAUGAGGAUCACCCAUGUUAUGA | 31.1

---

Quick reference: apparent Kd of the listed items.
System: MS2 coat protein
PROCEDURE_TEXT: apparent Kd, MS2 coat protein; higher = weaker binding; RNA-MaP array; FMN 200 µM where present
CONDITION_SUMMARY: designed as: OFF switch for flavin mononucleotide; no ligand

QUERY_SEQUENCE | apparent Kd, nM
UGCAUGCUAGGAUAUACGGGACAUUAGGGUUCGUCGUAUGGACAUGAGGAUCACCCAUGUAGAAGGAGCGUGCU | 18.6
UCACGGCUCGGAGGAUAUGACACAUGAGGAUCACCCAUGUGUGUAAGCCAAUAAACCUACAAAUGUCAGAAGGCCGCGCCUCAU | 15.3
UAAUUUUUGACAGGAUAUCCAUGUACAUGAGGAUCACCCAUGUAAAAGGGUAGCCUCAUCGGGCAGGAGAAGGGUCGAUAGGCG | 249
UUUUAGUCAGGAUAUACAUGAGGAUCACCCAUGUAAAAUUUUAGUUUAAUUUGAAUGUGUAGAAGGGACAUUUU | 24.7
CUUGUUGUCGAGGAUAUGCACCAGCUCACUGACGCAGAAGGCGACACAUGAGGAUCACCCAUGUCAGUUCGCGU | 37.4
GUAAUUAUAUAGGAUAUCGAACUUAUUAUUUAACGAGAAGGAUGAACAUGAGGAUCACCCAUGUGGUAUCAUGG | 156
UAAUAAUAGCAAGGAUAUGGUUAUUAUAAUAUACCAGAAGGUGCACAUGAGGAUCACCCAUGUUUUAUAAUUUGUAAUUUAAAU | 30.7
UUUUUACAUGAGGAUCACCCAUGUCAGGAUAUGGUUAUAUUUUAUUAUUUUAUUUUUUCCAGAAGGGACUAUUA | 343
GAUGUUCUGGUCAGGAUAUGCAUCCGUCGGCCGGAGCAGAAGGGACAUGAGGAUCACCCAUGUGCGGGUACAAA | 38.7
CCAGGCUUCGAGAAGGACAUGAGGAUCACCCAUGUGCGUGUGAAGCAGCCGUGAGGCUGCAUCAUGUAGGAUAUCGGAGUCUGG | 71.9
GUCAGCUCGUGAGGAUAUACAACACUGCUUCGGCAGUGUAAUAAGAUCACAUGAGGAUCACCCAUGUAGAAGGCACGAGCUGAU | 12
GCCUUAUCGGUCAGGAUAUACACCCGUCACUUCUUGUAGAAGGGACAUGAGGAUCACCCAUGUACAUUACAUUG | 313
AUGCUUCACACAGGAUAUUACAACAUGAGGAUCACCCAUGUACAUGACAUGAGGAUCACCCAUGUUAAGAAGGGUGUGAAGCAU | 261
AUCAUGUCAGGAUAUGUGAUAUGGAUCUUCGGAUCAAGUUCACAGAAGGGACAUGAGGAUCACCCAUGUCGAAC | 50.6
GCAAGAAUAGGAUAUACACCGUGUCAGCUUUUAUAUAUCGCACAUGAGGAUCACCCAUGUAGAAGGGUUCUCUG | 420
GUGUACAGAGGAUAUGCUGGAAUCUAGCGAAGCUAGGUUCCACAUGAGGAUCACCCAUGUAGAAGGCUGUACAC | 23.3
GCCAAGGUACAGAAGGGACUACAUGAGGAUCACCCAUGUGUUUCUGCACGUAAAUGAUACAGUGGUCAGGAUAUGUGCUCCAAA | 9.49
UAAAACGGAGGAUAUACUGACCCUCAAAACAGACGCGCUGGACAUGAGGAUCACCCAUGUAGAAGGCCGAAUGC | 26.3
CUUUUGUGAGGAUAUCAGUAGUAAUACAAUAGUAUUACUAUUGAGAAGGCACAUGAGGAUCACCCAUGUUCCUC | 39.4
UCGCCUUAGUAAGGAUAUCACAUGAGGAUCACCCAUGUGGGCGUGACACGGUGAGAAGGUACGCGGCGAAGGUGCCAAGGCAUC | 387
GCACUGGCAGGAUAUACAUGAGGAUCACCCAUGUGAUCCCUUAAGUACAAAAGUACAAGUAGAAGGGCCUGUGC | 771
CUGUGACGGUGCGCAAGUGGACGGAGAAGGCAGACAUGAGGAUCACCCAUGUGAGCCUGCUAUUCUGAGGAUAUCCGUUCGUAC | 27
ACCAUUUACUAAUCCUCUAUACAUGAGGAUCACCCAUGUUAAGAGGAUAUCAUCGUUCGCCGCGUUGAGAAGGCUUAGCAUUCG | 14.8

---

Tested on: MS2 coat protein
PROCEDURE_TEXT: apparent Kd, MS2 coat protein; higher = weaker binding; RNA-MaP array; theophylline 2 mM where present
CONDITION_SUMMARY: designed as: ON switch for theophylline; no ligand

QUERY_SEQUENCE | apparent Kd
GGUGAUCCGUAUCACCGGAUCAUCGGUGAUACCAGCAUCGAAAGAUGCCCUUGGCAGCACCAACAUGAGGAUCACCCAUGUAAUA | 120 nM
CUCCGAGGCUAUACUAUCCGCCUCAGUGAUACCAGAAUACCUAUAUUCCCUUGGCAGCAUCACAUGAGGAUCACCCAUGUGCCAU | 12.5 nM
AUGUCGUUGAAUAUAGCGGCUUGGAGUGAUACCAGCAUGAUCCAAUGCCCUUGGCAGCAUAACAUGAGGAUCACCCAUGUUCCAG | 57.6 nM
ACGACGCAUAGUGAUACCAGCACAACAUGAGGAUCACCCAUGUCACAUAUGUUGUAAUAAUGCCCUUGGCAGCACUAUGCGUCAG | 52 nM
GGUGGGACUUGUGAUACCAGCCCAAUUCGAAUCGAAUUGCACAUGAGGAUCACCCAUGUCGGCCCUUGGCAGCAUGAGUAUUUAU | 312 nM
AAUAACAUGAGGAUCACCCAUGUAAAAGAUACCAGAGUGAUGAUCCUCCCUUGGCAGCUUAAAACGCUAUUGGAAACAAUAGCGA | 80.5 nM
UAUUUGGUGCGCGAGUGUUGGAUAAUUGAUACCAGUGAAGAAGAGCGCCCUUGGCAGCGAAUCCUAACAUGAGGAUCACCCAUGU | 39.2 nM
GGAAGCAGGACUGAUACCAGUCCAGCGAAUCAUACGACGCAACAUGAGGAUCACCCAUGUGACCCUUGGCAGCAGACUGCUACCG | 31.5 nM
